Cited source: PubChem BioAssay AID328

The compounds listed here are annotated with their T/C.
# Test system: BDF1 mice, P388 leukemia ip, median survival T/C
# experimental-protocol: NCI In Vivo Anticancer Drug Screen. Data for tumor model P388 Leukemia (intraperitoneal) in B6D2F1 (BDF1) mice
# run-conditions: endpoint: median survival time; dose: 200.0 mg/kg/injection; schedule: Q04DX003 (ip); vehicle: water; higher = longer survival
Inconclusive results and toxic doses are left out.

Previously resolved entries follow.
>>> assay_value("OCCN(CCO)c1cc(OCc2ccccc2)cc(OCc2ccccc2)c1")
"95 % of control"
>>> assay_value("Cc1ccc(CNCC(=O)O)cc1")
"102 % of control"
>>> assay_value("CC1CN(Cc2ccccc2)CC(C)N1 (stereo unspecified)")
"92 % of control"
>>> assay_value("O=c1[nH]c2nccnc2[nH]1")
"107 % of control"
>>> assay_value("COc1cc2c(cc1OC)C(C#N)N(C(=O)c1ccccc1)C=C2 (stereo unspecified)")
"94 % of control"

For the next question, use this compound.
Request: Quick one: T/C for COc1cccc(C(O)c2ccncc2)c1OC (stereo unspecified) ?
Result: 90 % of control
